# Substrate: CC(=O)Oc1ccc([N+](=O)[O-])cc1
# assay_text: purified protein
# Assay type: biochemical, Sutcliffiella cohnii
# recorded_conditions: 50 mM Tris-HCl pH 8.0, 20 °C
Here the recorded kcat/Km is given for each entry.
Give your result in M⁻¹ s⁻¹ as a bare value.

[
  {
    "protein": "EstN7 (Sutcliffiella cohnii; M187A/N211A) (protein, recombinant, purified from E. coli BL21(DE3); dimer; catalytic triad S157, D254, H284) MKNRIDPELRAMLDMFPPLNLDDVQATRKAMEEAAQLTELPVDEEVVVSNRMVPGPEDNPYVRVRIYEPKEKIEKLPGLLWIHGGGYVLGAPEGDDLLCQRFVKEANCVVVSVDYRLAPEHPYPAPLEDCYAALQWFAKKVDELGVDASRIGVGGQSAGGGLTAALALLARDRKGPELCFQMPLYPAIDDKNNSPSSLEITGNLIWNHDLAEKGWSMYLDGKNGTDDVPVHAAPARATDLTNLPYTYTCVGQLDPFRDETLDYVKRLCQAGVDVEFHLYPGAYHGFETLNPAAAVSQRALAEYVGAVKHVLNREKVVERK",
    "kcat/Km [M⁻¹ s⁻¹]": 328000
  },
  {
    "protein": "EstN7 (Sutcliffiella cohnii; W206A) (protein, recombinant, purified from E. coli BL21(DE3); dimer; catalytic triad S157, D254, H284) MKNRIDPELRAMLDMFPPLNLDDVQATRKAMEEAAQLTELPVDEEVVVSNRMVPGPEDNPYVRVRIYEPKEKIEKLPGLLWIHGGGYVLGAPEGDDLLCQRFVKEANCVVVSVDYRLAPEHPYPAPLEDCYAALQWFAKKVDELGVDASRIGVGGQSAGGGLTAALALLARDRKGPELCFQMPLYPMIDDKNNSPSSLEITGNLIANHDLNEKGWSMYLDGKNGTDDVPVHAAPARATDLTNLPYTYTCVGQLDPFRDETLDYVKRLCQAGVDVEFHLYPGAYHGFETLNPAAAVSQRALAEYVGAVKHVLNREKVVERK",
    "kcat/Km [M⁻¹ s⁻¹]": 1190
  }
]

Lab note: measured kcat/Km of EstN7 (Sutcliffiella cohnii) (protein, recombinant, purified from E. coli BL21(DE3); dimer; catalytic triad S157, D254, H284) MKNRIDPELRAMLDMFPPLNLDDVQATRKAMEEAAQLTELPVDEEVVVSNRMVPGPEDNPYVRVRIYEPKEKIEKLPGLLWIHGGGYVLGAPEGDDLLCQRFVKEANCVVVSVDYRLAPEHPYPAPLEDCYAALQWFAKKVDELGVDASRIGVGGQSAGGGLTAALALLARDRKGPELCFQMPLYPMIDDKNNSPSSLEITGNLIWNHDLNEKGWSMYLDGKNGTDDVPVHAAPARATDLTNLPYTYTCVGQLDPFRDETLDYVKRLCQAGVDVEFHLYPGAYHGFETLNPAAAVSQRALAEYVGAVKHVLNREKVVERK was 1.52e+07
